This collection of values is drawn from patent US20260248936A1.

- procedureDetails: Chemical stability in PBS buffer solution (pH 7.4)
- Type: physicochemical
- settings: PBS buffer solution pH 7.4, 37° C., HPLC; read-out: Chemical stability t1/2
- Experimental: The compounds of the present invention (A-5, A-8, A-9, A-11, A-12, A-14, A-15, A-16, A-19, A-23, A-24, A-35 and A-36) were each dissolved in DMSO to a concentration of 10 mM and then mixed with a PBS buffer solution (pH 7.4) to prepare as a solution having a concentration of 500 μM (5% DMSO). MPS, used as a standard substance, was also prepared as a solution having a concentration of 500 μM in a PBS buffer solution. […]
Numbered stars: 1 amine (or outer) side, 2 acyl side, 3 side chain; on linkers, the order of the positions; unused ones are H or OH. Square brackets hold non-standard residues; d marks the D form. Peptide text beside a SMILES is read from it. * marks the point of attachment. ξ: configuration not given here. X2 = C#CCC(OC(=O)*)c1ccc(O[C@@H]2O[C@H](CO)[C@H](O)[C@H](O)[C@H]2O)c2cc(C(=O)O)oc12; Dil(5ξ) = CCC(C)[C@@H]([C@@H](CC(=O)[*:2])OC)N(C)[*:1]; Dolaproine = CO[C@@H]([C@@H]1CCCN1)[C@@H](C)C(=O)O; NMeV = CN[C@H](C(=O)O)C(C)C; ξF = NC(Cc1ccccc1)C(=O)O
Collected half-life at 100 µM values appear next to each entry.

C#CCC(OC(=O)N(C)[C@H](C(=O)N[C@H](C(=O)N(C)[C@@H](C(C)CC)[C@@H](CC(=O)N1CCC[C@H]1[C@H](OC)[C@@H](C)C(=O)NC(Cc1ccccc1)C(=O)O)OC)C(C)C)C(C)C)c1ccc(O[C@@H]2O[C@H](CO)[C@H](O)[C@H](O)[C@H]2O)c2cc(C(=O)O)oc12 (some centres unmarked) [Compound A-15] (X2-[NMeV]V[Dil(5ξ)][Dolaproine][ξF]-OH): > 168 h

# query: half-life at 100 µM of entry CCC(C)[C@@H]([C@@H](CC(=O)N1CCC[C@H]1[C@H](OC)[C@@H](C)C(=O)NC(Cc1ccccc1)C(=O)O)OC)N(C)C(=O)[C@@H](NC(=O)[C@H](C(C)C)N(C)C(=O)OCc1cc2c(O[C@@H]3O[C@H](CO)[C@H](O)[C@H](O)[C@H]3O)ccc(COC(=O)N(C)[C@H](C(=O)N[C@H](C(=O)N(C)[C@@H](C(C)CC)[C@@H](CC(=O)N3CCC[C@H]3[C@H](OC)[C@@H](C)C(=O)NC(Cc3ccccc3)C(=O)O)OC)C(C)C)C(C)C)c2o1)C(C)C (some centres unmarked) [Compound A-24]
> 168 h
